settings: 318.15 K; 101.33 kPa; Liquid; Concentric cylinders viscometry
reported.metric: viscosity (mPa·s)
Numbers only, in mPa·s.

> print(dat)
                                   molecule  numeric.value
1  CCn1cc[n+](C)c1.O=S(=O)([O-])O [1-ethyl-3-methylimidazolium hydrogen sulfate]            463
2  CCCCOS(=O)(=O)[O-].CC[n+]1ccn(C)c1 [3-ethyl-1-methylimidazolium butyl sulfate]           68.1
3  CCCCCCOS(=O)(=O)[O-].CC[n+]1ccn(C)c1 [3-ethyl-1-methyl-1H-imidazolium hexyl sulfate]          106.9
4  CCCCCCCCOS(=O)(=O)[O-].CCn1cc[n+](C)c1 [1-ethyl-3-methylimidazolium octyl sulfate]          184.4

Exercise: So what's the measured viscosity for this one? CCn1cc[n+](C)c1.COS(=O)(=O)[O-] [1-ethyl-3-methylimidazolium methylsulfate]
Key: 35.9

====

For each record, write down the corresponding mass density.
conditions: 352.15 K; 101.33 kPa; Liquid; Vibrating tube method
Answers are plain numbers, in kg/m3.

> print(dat)
                                   molecule  numeric.value
1  CCCCCCCCOS(=O)(=O)[O-].CCn1cc[n+](C)c1 [1-ethyl-3-methylimidazolium octyl sulfate]        1060.42
2  CCCCOS(=O)(=O)[O-].CC[n+]1ccn(C)c1 [3-ethyl-1-methylimidazolium butyl sulfate]        1140.57
3  CCCCCCOS(=O)(=O)[O-].CC[n+]1ccn(C)c1 [3-ethyl-1-methyl-1H-imidazolium hexyl sulfate]        1095.12
4  CCn1cc[n+](C)c1.COS(=O)(=O)[O-] [1-ethyl-3-methylimidazolium methylsulfate]        1249.93

Exercise: So what's the measured mass density for this one? CCn1cc[n+](C)c1.O=S(=O)([O-])O [1-ethyl-3-methylimidazolium hydrogen sulfate]
Key: 1333.16

====

For each record, write down the corresponding log10(viscosity).
settings: 288.15 K; 101.33 kPa; Liquid; Concentric cylinders viscometry
Form field - Quantity: viscosity; Unit: mPa·s; Scale: log10

Illustrative cases are given below, each with its answer.
> print(dat)
                                   molecule   reported.metric  numeric.value
1  CCCCCCOS(=O)(=O)[O-].CC[n+]1ccn(C)c1 [3-ethyl-1-methyl-1H-imidazolium hexyl sulfate]  log10(viscosity)           2.78
2  CCn1cc[n+](C)c1.O=S(=O)([O-])O [1-ethyl-3-methylimidazolium hydrogen sulfate]  log10(viscosity)           3.56

# return log10(viscosity) for each item in the list
1. CCCCOS(=O)(=O)[O-].CC[n+]1ccn(C)c1 [3-ethyl-1-methylimidazolium butyl sulfate]
2. CCCCCCCCOS(=O)(=O)[O-].CCn1cc[n+](C)c1 [1-ethyl-3-methylimidazolium octyl sulfate]

Key:
1: 2.52; 2: 3.10

Exercise: So what's the measured log10(viscosity) for this one? CCn1cc[n+](C)c1.COS(=O)(=O)[O-] [1-ethyl-3-methylimidazolium methylsulfate]
Key: 2.11

====

conditions: 353.15 K; 101.33 kPa; Liquid; Concentric cylinders viscometry
Please use rule met for viscosity under 30 mPa·s and rule not met for everything else, ties included.

The examples below pair each entry with its known result.
> print(dat)
                                   compound  assigned.category
1  CCCCOS(=O)(=O)[O-].CC[n+]1ccn(C)c1 [3-ethyl-1-methylimidazolium butyl sulfate]           rule met
2  CCn1cc[n+](C)c1.COS(=O)(=O)[O-] [1-ethyl-3-methylimidazolium methylsulfate]           rule met
3  CCCCCCCCOS(=O)(=O)[O-].CCn1cc[n+](C)c1 [1-ethyl-3-methylimidazolium octyl sulfate]       rule not met
4  CCCCCCOS(=O)(=O)[O-].CC[n+]1ccn(C)c1 [3-ethyl-1-methyl-1H-imidazolium hexyl sulfate]           rule met

Now for another entry.
Exercise: Does CCn1cc[n+](C)c1.O=S(=O)([O-])O [1-ethyl-3-methylimidazolium hydrogen sulfate] have viscosity strictly under 30 mPa·s?
Key: rule not met

====

For each record, write down the corresponding mass density.
settings: 308.15 K; 101.33 kPa; Liquid; Vibrating tube method
Give bare numbers, in kg/m3.

> print(dat)
                                   molecule  reported.metric  display.unit  numeric.value
1  CCCCOS(=O)(=O)[O-].CC[n+]1ccn(C)c1 [3-ethyl-1-methylimidazolium butyl sulfate]     mass density         kg/m3        1169.43
2  CCn1cc[n+](C)c1.COS(=O)(=O)[O-] [1-ethyl-3-methylimidazolium methylsulfate]     mass density         kg/m3        1279.15
3  CCn1cc[n+](C)c1.O=S(=O)([O-])O [1-ethyl-3-methylimidazolium hydrogen sulfate]     mass density         kg/m3        1359.59
4  CCCCCCOS(=O)(=O)[O-].CC[n+]1ccn(C)c1 [3-ethyl-1-methyl-1H-imidazolium hexyl sulfate]     mass density         kg/m3         1123.7

Kindly review the next molecule as well.
Exercise: So what's the measured mass density for this one? CCCCCCCCOS(=O)(=O)[O-].CCn1cc[n+](C)c1 [1-ethyl-3-methylimidazolium octyl sulfate]
Key: 1089

====

settings: 303.15 K; 101.33 kPa; Liquid; Vibrating tube method
For each record, write down the corresponding mass density.
Give bare numbers, in kg/m3.

Illustrative cases are given below, each with its answer.
> print(dat)
                                   molecule  display.unit  numeric.value
1  CCn1cc[n+](C)c1.COS(=O)(=O)[O-] [1-ethyl-3-methylimidazolium methylsulfate]         kg/m3        1282.57
2  CCCCOS(=O)(=O)[O-].CC[n+]1ccn(C)c1 [3-ethyl-1-methylimidazolium butyl sulfate]         kg/m3        1172.82
3  CCn1cc[n+](C)c1.O=S(=O)([O-])O [1-ethyl-3-methylimidazolium hydrogen sulfate]         kg/m3        1362.67
4  CCCCCCCCOS(=O)(=O)[O-].CCn1cc[n+](C)c1 [1-ethyl-3-methylimidazolium octyl sulfate]         kg/m3        1092.32

Exercise: So what's the measured mass density for this one? CCCCCCOS(=O)(=O)[O-].CC[n+]1ccn(C)c1 [3-ethyl-1-methyl-1H-imidazolium hexyl sulfate]
Key: 1127.05

====

conditions: 363.15 K; 101.33 kPa; Liquid; Concentric cylinders viscometry
For each record, write down the corresponding viscosity.
One number for each entry, in mPa·s.

> print(dat)
                                   molecule  numeric.value
1  CCn1cc[n+](C)c1.COS(=O)(=O)[O-] [1-ethyl-3-methylimidazolium methylsulfate]             11
2  CCn1cc[n+](C)c1.O=S(=O)([O-])O [1-ethyl-3-methylimidazolium hydrogen sulfate]           72.4
3  CCCCCCCCOS(=O)(=O)[O-].CCn1cc[n+](C)c1 [1-ethyl-3-methylimidazolium octyl sulfate]           31.3
4  CCCCOS(=O)(=O)[O-].CC[n+]1ccn(C)c1 [3-ethyl-1-methylimidazolium butyl sulfate]             16

Exercise: So what's the measured viscosity for this one? CCCCCCOS(=O)(=O)[O-].CC[n+]1ccn(C)c1 [3-ethyl-1-methyl-1H-imidazolium hexyl sulfate]
Key: 21.6

====

For each record, write down the corresponding mass density.
conditions: 338.15 K; 101.33 kPa; Liquid; Vibrating tube method
Answers are plain numbers, in kg/m3.

# return mass density for each item in the list
1. CCCCOS(=O)(=O)[O-].CC[n+]1ccn(C)c1 [3-ethyl-1-methylimidazolium butyl sulfate]
2. CCn1cc[n+](C)c1.O=S(=O)([O-])O [1-ethyl-3-methylimidazolium hydrogen sulfate]
3. CCCCCCCCOS(=O)(=O)[O-].CCn1cc[n+](C)c1 [1-ethyl-3-methylimidazolium octyl sulfate]

Key:
1: 1149.6; 2: 1341.56; 3: 1069.35

# return mass density for each item in the list
1. CCCCCCOS(=O)(=O)[O-].CC[n+]1ccn(C)c1 [3-ethyl-1-methyl-1H-imidazolium hexyl sulfate]
2. CCn1cc[n+](C)c1.COS(=O)(=O)[O-] [1-ethyl-3-methylimidazolium methylsulfate]

Key:
1: 1104.05; 2: 1259.1

====

conditions: 323.15 K; 101.33 kPa; Liquid; Vibrating tube method
For each record, write down the corresponding mass density.
Answers are plain numbers, in kg/m3.

> print(dat)
                                   compound  reported.metric  display.unit  numeric.value
1  CCCCCCOS(=O)(=O)[O-].CC[n+]1ccn(C)c1 [3-ethyl-1-methyl-1H-imidazolium hexyl sulfate]     mass density         kg/m3        1113.77
2  CCCCOS(=O)(=O)[O-].CC[n+]1ccn(C)c1 [3-ethyl-1-methylimidazolium butyl sulfate]     mass density         kg/m3        1159.41
3  CCn1cc[n+](C)c1.COS(=O)(=O)[O-] [1-ethyl-3-methylimidazolium methylsulfate]     mass density         kg/m3        1269.04
4  CCCCCCCCOS(=O)(=O)[O-].CCn1cc[n+](C)c1 [1-ethyl-3-methylimidazolium octyl sulfate]     mass density         kg/m3        1079.09

Exercise: So what's the measured mass density for this one? CCn1cc[n+](C)c1.O=S(=O)([O-])O [1-ethyl-3-methylimidazolium hydrogen sulfate]
Key: 1350.72
